Molecular target: chimeric human RORγ-Gal4 receptor (Homo sapiens)
Sequence (P51449 269-508 limits assumed, change not shown): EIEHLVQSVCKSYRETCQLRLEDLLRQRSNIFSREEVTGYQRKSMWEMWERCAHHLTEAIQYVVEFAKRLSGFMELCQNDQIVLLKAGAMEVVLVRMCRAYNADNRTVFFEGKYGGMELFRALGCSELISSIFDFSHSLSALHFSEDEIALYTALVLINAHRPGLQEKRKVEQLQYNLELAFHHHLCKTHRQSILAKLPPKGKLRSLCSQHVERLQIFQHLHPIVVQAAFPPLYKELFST
Test: transient transactivation assay (RORγ-Gal4 luciferase reporter)
Assay type: cell-based
Conditions: Cos-7 cells transfected with RORγ-Gal4 and 5Gal4 pGL3 TK Luc reporter; overnight incubation; T0901317 at 10^-5 M as reference; read-out: IC50
# key: entry, value: IC50

Use these answered entries as a reference point.
- O=C(O)CC1CCN(C(=O)c2ccc(Cl)c(C(=O)n3ccc4cc(C5CC5)cc(F)c43)c2Cl)CC1 [EO]: < 100 nM
- Cc1cc(C#N)cc2c1cc(Cc1c(Cl)ncc(C(=O)N3CCC4(CCOC4)CC3)c1Cl)n2C [Example FB]: < 100 nM

**Query** Provide the documented IC50 with chimeric human RORγ-Gal4 receptor (Homo sapiens) as the system for Cn1c(Cc2c(Cl)ccc(C(=O)N3CC[C@@H](F)[C@H](O)C3)c2Cl)cc2ccc(C(F)(F)F)cc21 [Example L-5]
**Result** 500 to 1000 nM

**Query** # repeat for Cc1cc(C(F)(F)F)cc2c1cc(Cc1c(Cl)ccc(C(=O)N3CCC(F)(C(=O)O)CC3)c1Cl)n2C [Example B-14]
**Result** 100 to 500 nM

**Query** Moving on to the next compound: COCC1CCN(Cc2ccc(Cl)c(Cc3nc4c(C)cc(C(F)(F)F)cc4n3C)c2Cl)CC1 [BW-3]
**Result** 100 to 500 nM

**Query** What do you have for Cc1cc(C#N)cc2c1cc(Cc1c(Cl)ccc(C(=O)N3CC4(COC4)C3)c1Cl)n2C [AA-26] ?
**Result** 100 to 500 nM

**Query** // repeat for Cc1cc(C(F)(F)F)cc2c1c(Cc1c(Cl)ccc(C(=O)N3CC[C@@H](C(=O)O)[C@@H](C)C3)c1Cl)cn2C [Example F1-3] and report
**Result** < 100 nM

**Query** Next compound: Cc1cc(C(F)(F)F)cc2c1nc(Cc1c(Cl)ccc(C(=O)N3CC4(COC4)C3)c1Cl)n2C [BJ-28]
**Result** 1000 to 10000 nM
